experimental.target: human orexin-2 (hOX2) receptor (Homo sapiens)
Construct: expressed in transfected cells
Sequence (O43614 whole entry): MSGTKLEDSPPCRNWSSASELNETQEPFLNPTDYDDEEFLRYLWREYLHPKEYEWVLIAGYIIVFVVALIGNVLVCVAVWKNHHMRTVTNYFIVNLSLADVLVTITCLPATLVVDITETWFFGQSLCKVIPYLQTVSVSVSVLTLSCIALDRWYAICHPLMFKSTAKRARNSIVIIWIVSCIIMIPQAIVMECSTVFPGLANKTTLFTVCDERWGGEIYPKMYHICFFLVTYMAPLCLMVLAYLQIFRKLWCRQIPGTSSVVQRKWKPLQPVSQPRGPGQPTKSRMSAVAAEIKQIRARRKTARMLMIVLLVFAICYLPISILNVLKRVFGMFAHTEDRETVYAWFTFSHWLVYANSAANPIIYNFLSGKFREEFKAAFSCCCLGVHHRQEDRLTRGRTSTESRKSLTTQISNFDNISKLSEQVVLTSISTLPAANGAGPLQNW
protocol.details: Intracellular Ca2+ mobilization assay (FLIPR), CHO(dHFr-) cells expressing hOX2, orexin-A at EC80 as agonist
Format: cell-based
assay.context: Kb=IC50/(1+[A]/EC50); CHO(dHFr-)-OX2R cells, antagonist applied 25 min before orexin-A EC80
Where a name gives a salt, the structure may show the parent alone.
reported.property: Kb (µM)
State the answer as a number, implicitly in µM.

Req: Requested read-out: Kb. Entry: Cc1ccc(CCN(C(=O)C(NC(C)(C)CO)c2ccccc2)c2ccc(C)c(C)c2)cc1 (stereo not drawn) [Example 132]
Resp: 0.0642

Req: Requested read-out: Kb. Entry: CCc1ccc(N(CCc2ccc(F)cc2)C(=O)[C@@H](N)c2ccccc2)cc1 [Example 244, hydrochloride]
Resp: 0.049

Req: Requested read-out: Kb. Entry: COc1ccc(N(CCc2ccc(C(F)(F)F)cc2)C(=O)[C@@H](N)c2ccccc2)cc1OC [Example 173, hydrochloride]
Resp: 0.0011

Req: Requested read-out: Kb. Entry: COc1cccc(N(CCc2ccc(C(F)(F)F)cc2)C(=O)C(N)c2ccccc2)c1 (stereo not drawn) [Example 60]
Resp: 0.0231

Req: Requested read-out: Kb. Entry: COc1cc(N(CCc2ccc(C(F)(F)F)cc2)C(=O)C(N)c2ccccc2)ccc1F (stereo not drawn) [Example 104]
Resp: 0.022

Req: Requested read-out: Kb. Entry: N[C@H](C(=O)N(CCc1ccc(F)cc1)c1ccc2c(c1)OCC2)c1ccccc1 [Example 243, hydrochloride]
Resp: 0.0604

Req: Requested read-out: Kb. Entry: Cc1ccc(N(CCc2ccc(C(F)(F)F)cc2)C(=O)C(=O)c2ccccc2)cc1C [Example 218]
Resp: 0.0555

Req: Requested read-out: Kb. Entry: NC(C(=O)N(CCc1ccc(C(F)(F)F)cc1)c1ccc2c(c1)OCO2)c1ccccc1 (stereo not drawn) [Example 58]
Resp: 0.0275

Req: Requested read-out: Kb. Entry: COc1ccc(N(CCc2ccc(C(F)(F)F)cc2)C(=O)C(N)c2cccc(F)c2)cc1OC (stereo not drawn) [Example 85]
Resp: 0.0074

Req: Requested read-out: Kb. Entry: N[C@H](C(=O)N(CCc1ccc(C(F)(F)F)cc1)c1ccc(OC(F)F)c(Cl)c1)c1ccc(F)cc1 [Example 163]
Resp: 0.0778

Req: Requested read-out: Kb. Entry: COc1ccc(CCN(C(=O)C(N)c2ccccc2)c2ccc(OC(F)(F)F)cc2)cc1OC (stereo not drawn) [Example 78]
Resp: 0.0444

Req: Requested read-out: Kb. Entry: N[C@H](C(=O)N(CCc1ccc(C(F)(F)F)cc1)c1ccc(OC(F)F)cc1)c1ccccc1 [Example 148]
Resp: 0.0217

Req: Requested read-out: Kb. Entry: COc1ccccc1CCN(C(=O)[C@@H](N)c1ccccc1)c1ccc(C)c(C)c1 [Example 194, hydrochloride]
Resp: 0.0052

Req: Requested read-out: Kb. Entry: COc1ccc(N(CCc2ccc(C(F)(F)F)cc2)C(=O)C(N)c2ccccc2)cc1Cl (stereo not drawn) [Example 66]
Resp: 0.013

Req: Requested read-out: Kb. Entry: COC(CNC(C(=O)N(CCc1ccc(C)cc1)c1ccc(C)c(C)c1)c1ccccc1)OC (stereo not drawn) [Example 129]
Resp: 0.0173

Req: Requested read-out: Kb. Entry: Cc1ccc(N(CCc2ccccc2C)C(=O)[C@@H](N)c2ccccc2)cc1C [Example 185, hydrochloride]
Resp: 0.0305

Req: Requested read-out: Kb. Entry: CN[C@H](C(=O)N(CCc1ccc(C(F)(F)F)cc1)c1ccc(C)c(C)c1)c1ccccc1OC [Example 157]
Resp: 0.0322

Req: Requested read-out: Kb. Entry: Cc1ccc(N(CCc2ccc(Cl)c(F)c2)C(=O)[C@@H](N)c2ccccc2)cc1C [Example 200, hydrochloride]
Resp: 0.0143

Req: Requested read-out: Kb. Entry: Cc1ccc(N(CCc2ccc(OC(F)F)cc2)C(=O)[C@@H](N)c2ccccc2)cc1C [Example 210, hydrochloride]
Resp: 0.0077

Req: Requested read-out: Kb. Entry: Cc1ccc(N(CCc2cccc(C(F)(F)F)c2)C(=O)[C@@H](N)c2ccccc2)cc1C [Example 184, hydrochloride]
Resp: 0.0249

Req: Requested read-out: Kb. Entry: Cc1ccc(N(CCc2ccc(C(F)(F)F)cc2)C(=O)[C@@H](N)c2ccc(F)cc2)cc1C [Example 154]
Resp: 0.051

Req: Requested read-out: Kb. Entry: Cc1ccc(N(CCc2c(F)cc(C(F)(F)F)c(F)c2F)C(=O)[C@@H](N)c2ccccc2)cc1C [Example 202, hydrochloride]
Resp: 0.0015

Req: Requested read-out: Kb. Entry: Cc1ccc(N(CCc2ccc(C(F)(F)F)cc2)C(=O)[C@@H](O)c2ccc(F)cc2)cc1C [Example 161]
Resp: 0.0908

Req: Requested read-out: Kb. Entry: Cc1ccc(N(CCc2cc(F)cc(Cl)c2)C(=O)[C@@H](N)c2ccccc2)cc1C [Example 209, hydrochloride]
Resp: 0.0486

Req: Requested read-out: Kb. Entry: COc1ccc(N(CCc2ccc(C(F)(F)F)cc2)C(=O)[C@@H](N)c2ccccc2OC)cc1OC [Example 103, hydrochloride]
Resp: 0.0053

Req: Requested read-out: Kb. Entry: Cc1ccc(CCN(C(=O)C(NC(C)CO)c2ccccc2)c2ccc(C)c(C)c2)cc1 (stereo not drawn) [Example 122]
Resp: 0.0225

Req: Requested read-out: Kb. Entry: Cc1ccc(CCN(C(=O)[C@@H](N)c2ccc(F)cc2)c2ccc(C)c(C)c2)cc1 [Example 144]
Resp: 0.0174

Req: Requested read-out: Kb. Entry: COc1ccc(N(CCc2ccc(C(F)(F)F)cc2)C(=O)C(N)c2ccc(F)cc2)cc1OC (stereo not drawn) [Example 61]
Resp: 0.0025

Req: Requested read-out: Kb. Entry: COc1ccc(N(CCc2ccc(C(F)(F)F)cc2)C(=O)C(O)c2ccc(F)cc2)cc1OC (stereo not drawn) [Example 26]
Resp: 0.0592

Req: Requested read-out: Kb. Entry: Cc1ccc(N(CCc2cccc(Cl)c2)C(=O)[C@@H](N)c2ccccc2)cc1C [Example 183, hydrochloride]
Resp: 0.0496
